- SYSTEM: UniProtKB P07306
- Sequence (P07306 whole entry): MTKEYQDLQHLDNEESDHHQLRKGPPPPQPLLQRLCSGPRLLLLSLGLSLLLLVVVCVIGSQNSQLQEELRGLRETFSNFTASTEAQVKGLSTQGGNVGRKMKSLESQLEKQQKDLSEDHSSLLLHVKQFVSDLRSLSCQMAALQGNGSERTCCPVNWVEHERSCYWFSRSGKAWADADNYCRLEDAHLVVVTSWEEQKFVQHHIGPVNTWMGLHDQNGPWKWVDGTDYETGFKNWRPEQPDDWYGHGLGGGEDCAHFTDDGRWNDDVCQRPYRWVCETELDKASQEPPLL
- METHOD SUMMARY: Affinity to ASGPR measured by surface plasmon resonance (SPR)
- Assay type: binding
- STATED CONDITIONS: ASGPR ligands, Table 4; numeric lower bounds; read-out: ASGPR_PR Binding KD
pKd: −log10 of the molar value.
MEASUREMENT KIND: pKd

Measured pKd of CO[C@@H]1O[C@H](CO)[C@H](O)[C@H](O)[C@H]1Nc1nc(C(=O)O)cs1 : < 3.70

Short answer for N#Cc1cnc(N[C@H]2CO[C@H](CO)[C@H](O)[C@@H]2O)s1 : pKd was < 4.70

Record OC[C@H]1OC[C@H](Nc2cnc(C(F)(F)F)cn2)[C@@H](O)[C@H]1O , field pKd: < 4.70

Measured pKd, NC(=O)NC[C@@H]1CO[C@H](CO)[C@H](O)[C@@H]1O : < 4.70

Reported pKd of OC[C@H]1OC[C@@H](NC2=NCCC(C(F)(F)F)=N2)[C@@H](O)[C@H]1O : < 4.70

Value of measured pKd for the entry CO[C@@H]1O[C@H](CO)[C@H](O)[C@H](O)[C@H]1Nc1nc(C#N)cs1 : < 4.70

Looking up CC(=O)NCCNC[C@@H]1CO[C@H](CO)[C@H](O)[C@@H]1O , I see its pKd listed as < 3.70

In plain terms, OC[C@H]1OC[C@H](Nc2ncc(-c3ccccc3)cn2)[C@@H](O)[C@H]1O has a documented pKd of < 4.70

The recorded pKd for entry CN(C)C(=O)[C@@H]1CO[C@H](CO)[C@H](O)[C@@H]1O equals < 3.70

pKd in this record for CSc1cc(N[C@H]2CO[C@H](CO)[C@H](O)[C@@H]2O)nc(C(N)=O)n1 : < 4.70

Lookup result for OC[C@H]1OC=C(C(F)(F)F)[C@@H](O)[C@H]1O ; measured pKd: < 3.70

Lab note: CC(=O)N[C@@H]1CO[C@@H]2COC(C)(C)O[C@@H]2[C@@H]1O gave pKd of < 3.70

Reported pKd for OC[C@H]1OC[C@@H](Nc2ncc(Cl)cc2F)[C@@H](O)[C@H]1O was < 4.70

For this compound ( COC(=O)c1cc(OC)nc(N[C@H]2CO[C@H](CO)[C@H](O)[C@@H]2O)n1 ), measured pKd is < 4.70

The recorded pKd for OC[C@H]1OC[C@H](Nc2nc3ccc(C(F)(F)F)cc3s2)[C@@H](O)[C@H]1O is < 4.70

Recorded pKd (compound OC[C@H]1OC[C@H](Nc2ccc(C(F)(F)F)nn2)[C@@H](O)[C@H]1O ): < 4.70

Query N#Cc1cc(N[C@H]2CO[C@H](CO)[C@H](O)[C@@H]2O)nc(C#N)n1 yields pKd of < 4.70
